test system: SF-295; test: NCI tumour cell line growth inhibition, 48 h
Activity calls are given as the source filed them. Rule as the data show it: active = GI50 up to about 1.1 µM and inactive = higher.
API: response.call in 1.0 = active, 0.0 = inactive

Below, 5 compounds whose answers are already recorded.
compound	category
O=C1C(c2ccccc2)=C(c2ccccc2)C(c2ccc(Cc3ccc(C4=C(c5ccccc5)C(=O)C(c5ccccc5)=C4c4ccccc4)cc3)cc2)=C1c1ccccc1	0.0
CC1(C)C(=O)N=C(N)N1C(=O)OCc1ccccc1	0.0
C=C1C(=O)OC2/C=C(\C)C3OC3/C=C(/C(=O)OC)C(O)C(OC(=O)C3(C)OC3C)C12 (stereo unspecified)	0.0
Cc1nc(=O)n2c(C)n[nH]c2c1C(=O)Nc1cc(Cl)cc(Cl)c1	0.0
COc1ccc2cc(NC(=O)N/N=C\c3ccc(Cl)cc3)ccc2c1	0.0

Called result for c1ccc(C2=NN(c3ccccc3)C3(S2)SC(c2ccccc2)(c2ccccc2)c2ccccc23)cc1 (stereo unspecified)
0.0

Called result for O=C1CN2C(c3ccccc3)=NN(c3ccc([N+](=O)[O-])cc3)C2(c2ccccc2)c2cc(Cl)ccc2N1CC1CC1 (stereo unspecified)
0.0

Called result for COC(=O)/C=C/[C@H]1[C@H](C)N1S(=O)(=O)c1ccc(C)cc1 (stereo partly specified)
0.0
